The measured values listed here are drawn from patent US20210040189A1.

Biological target: T1, human DKK1 (human, UniProt O94907 32-266)
T1 construct: also called huDKK1; hDKK1
T1 sequence: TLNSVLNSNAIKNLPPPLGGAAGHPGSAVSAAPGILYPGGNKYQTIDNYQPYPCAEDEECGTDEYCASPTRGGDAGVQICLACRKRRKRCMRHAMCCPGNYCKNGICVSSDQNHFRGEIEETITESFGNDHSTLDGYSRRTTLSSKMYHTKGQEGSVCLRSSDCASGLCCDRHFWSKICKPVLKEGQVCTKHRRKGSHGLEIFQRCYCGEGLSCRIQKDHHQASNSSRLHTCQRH
Test: KinExA 3000 equilibrium binding in solution
Measured Kd, listed per entry for reference.

| Binder | Kd |
| --- | --- |
| 5.32.1 (antibody, V domains shown, Fully human hybridoma IgG, kappa (Vk)) VH: QVQLVQSGAEVKKPGASVKVSCKASGFTFTSYDISWVRQATGLGLEWMGWMNPSSGYTGYAQNFQGRVTMTWNTSISTVYMELSSLRSEDTAVYYCARTDYYYYGMDVWGRGTTVTVSS VL: DIQMTQSPSSLSASVGDRVTITCQASQDISKDLNWYQQKPGKAPKLLIYDASNLETGVPSRFSGSGSGTDFTFTISSLQPEDIATYYCQQYDDLPITFGQGTRLEIK | 0.003 nM |
| 6.37.5 (antibody, V domains shown, Fully human IgG, kappa (Vk)) VH: QVQLVESGGGVVQPGRSLRLSCAASGFTFSGYGMHWVRQAPGKGLEWVAVISYDGNDKYYADSVKGRFTISRDNAKNTLYLQMNSLRAEDTAVYYCARELRVLWGQGTLVTVSS VL: DIVMTQTPLSLSVTPGQPASISCKSGQSLLHSDGKTYLYWYLQKPGQPPQFLIYEVSNRFSRVPDRFSGSGSGTDFTLRISRVEAEDVGIYYCMQSIQLPWTFGQGTQVEIK | 0.03 nM |
| 6.116.6 (antibody, V domains shown, Fully human IgG, kappa (Vk)) VH: QVQLVESGGGVVQPGRSLRLSCAASGFTFSGYGMHWVRQAPGKGLEWVAVISYDGNDKYYADSVKGRFTISRDNAKNTLYLQMNSLRAEDTAVYYCARELRVLWGQGTLVTVSS VL: DIVMTQTPLSLSVTPGQPASISCKSGQSLLHNDGKTYLYWYLQKPGQPPQFLIYEVSNRFSRVPDRFSGSGSGTDFTLKISRVEAEDVGIYYCMQSIQLPWTFGQGTQVEIK | 0.025 nM |
